Below, each entry is listed alongside its reported inhibition of viability.
Assay: HCT116 colon cancer cell growth inhibition, primary screen, CellTiter-Glo luminescence, NPC library (AID 1117342)
Conditions: at 20 µM (top of the series)
Answer with a number only, understood to be in %.

Some compounds with known inhibition of viability results, for comparison:
compound=CCCCNC(C)(C)[P+](=O)O experimental_endpoint="inhibition of viability" recorded_result=-4.7
compound=NC(=O)c1cc([N+](=O)[O-])cc([N+](=O)[O-])c1 experimental_endpoint="inhibition of viability" recorded_result=37.6
compound=CN1CCc2cc(Cl)c(O)cc2[C@H]2c3ccccc3CC[C@@H]21 experimental_endpoint="inhibition of viability" recorded_result=28.5
compound=Fc1ccc(C(OCCN2CCN(CCCc3ccccc3)CC2)c2ccc(F)cc2)cc1 experimental_endpoint="inhibition of viability" recorded_result=124

Problem: Form field: reported inhibition of viability of O=C(O)c1nn(Cc2ccc(Cl)cc2Cl)c2ccccc12
Result: 19.6

Problem: Form field: reported inhibition of viability of CCC1(c2ccc(N)cc2)CCC(=O)NC1=O (stereo not drawn)
Result: -0.6

Problem: Form field: reported inhibition of viability of c1ccc(N2CCNCC2)cc1
Result: 10.5

Problem: Form field: reported inhibition of viability of CCOc1cc(C=O)ccc1O
Result: 6

====

Assay: stimulators of insulin release from INS-1E, primary screen, cell-based, 5 mM glucose, NPC library (AID 1117329); also: reference of the scale not given here
Conditions: rat INS-1E insulin secretion, at 10 µM, stronger effect = higher value
Below, each entry is listed alongside its reported insulin secretion stimulation.
Answer with a number only, understood to be in %.

Some molecules with known insulin secretion stimulation results, for comparison:
molecule="CN1[C@@H]2CC[C@H]1CC(OC(=O)c1cc(Cl)cc(Cl)c1)C2 (stereo partly specified)" recorded_result=14.4
molecule=CNC(C)(C)Cc1ccccc1 recorded_result=2.7
molecule=C[C@]12C[C@@H]3S[C@H]3C[C@@H]1CC[C@H]1[C@H]3CC[C@@H](O)[C@@]3(C)CC[C@@H]12 recorded_result=2.4

Problem: Form field: reported insulin secretion stimulation of O=c1[nH]c2cc(Cl)ccc2n1C1CCNCC1
Result: 3.8

Problem: Form field: reported insulin secretion stimulation of O=C(O)CCCCCCNC1c2ccccc2CCc2ccccc21
Result: -0.2

Problem: Form field: reported insulin secretion stimulation of CCc1ccc(C2CCNCC2)cc1
Result: 4

Problem: Form field: reported insulin secretion stimulation of c1cc2c(c(N3CCNCC3)c1)OCCO2
Result: 1.8

Problem: Form field: reported insulin secretion stimulation of O=C(CCl)c1ccc(Cl)cc1Cl
Result: 4.4

====

Assay: inhibitors of mitochondrial cytochrome c release, biochemical, purified mitochondria (AID 1603);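 also: mouse liver mitochondria challenged with calcium chloride; signal normalized to the plate average as 100%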
Conditions: stronger effect = lower value
Below, each entry is listed alongside its reported cytochrome c release ratio.
Give the value as a plain number.

Some compounds with known cytochrome c release ratio results, for comparison:
compound="CCCC(C)C1(CC)C(=O)NC(=O)NC1=O (stereo not drawn)" recorded_result=0.79
compound="CC[N+]1(C)CCCC(OC(=O)C(O)(c2ccccc2)c2ccccc2)C1 (stereo not drawn)" recorded_result=1.2
compound=COc1ccc2c(c1)[C@]13CCCC[C@H]1[C@H](C2)N(C)CC3 recorded_result=0.98
compound="C[C@@H]1O[C@@H](O[C@H]2C[C@@H](O)[C@]3(CO)C4C(CC[C@]3(O)C2)[C@@]2(O)CC[C@H](C3=CC(=O)OC3)[C@@]2(C)C[C@H]4O)[C@H](O)[C@H](O)[C@H]1O (stereo partly drawn)" recorded_result=1.01
compound="CCCCCc1cc(O)c2c(c1)OC(C)(C)C1CCC(C)=CC21 (stereo not drawn)" recorded_result=2.94

Problem: Form field: reported cytochrome c release ratio of NC(=O)CN1CCCC1=O
Result: 0.79

Problem: Form field: reported cytochrome c release ratio of NCCc1c[nH]c2ccccc12
Result: 0.68

Problem: Form field: reported cytochrome c release ratio of CCCCCCCCCCCCCCCC[n+]1ccccc1
Result: 3.74

Problem: Form field: reported cytochrome c release ratio of COc1ccc2c3c1O[C@H]1[C@@H](O)C=CC4[C@@H](C2)N(C)CC[C@@]341 (stereo partly drawn)
Result: 0.92

Problem: Form field: reported cytochrome c release ratio of C[C@@H]([C@H](O)c1ccccc1)N(C)C
Result: 0.95
